FYI, the data here is from patent US9345703B2.

Test target: H1 (Homo sapiens, UniProt P35367)
Sequence (P35367 whole entry): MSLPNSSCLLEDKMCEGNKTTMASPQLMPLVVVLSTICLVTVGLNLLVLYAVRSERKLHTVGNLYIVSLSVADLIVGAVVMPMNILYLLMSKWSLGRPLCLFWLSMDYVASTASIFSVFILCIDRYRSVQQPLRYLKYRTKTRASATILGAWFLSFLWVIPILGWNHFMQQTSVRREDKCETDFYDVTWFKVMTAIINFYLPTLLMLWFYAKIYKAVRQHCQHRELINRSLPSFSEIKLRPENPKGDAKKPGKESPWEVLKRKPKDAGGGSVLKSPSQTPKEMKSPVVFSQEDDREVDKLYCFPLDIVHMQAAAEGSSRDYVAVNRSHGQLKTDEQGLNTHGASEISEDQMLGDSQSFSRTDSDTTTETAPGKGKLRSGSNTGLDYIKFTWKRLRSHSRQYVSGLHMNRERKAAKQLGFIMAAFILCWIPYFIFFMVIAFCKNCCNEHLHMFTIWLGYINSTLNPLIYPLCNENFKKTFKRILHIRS
Assay explanation: PDSP radioligand binding assay
Condition description: Table 5
Measured attribute: pKi
Reminder that pKi means the negative base-10 logarithm of the concentration expressed in mol/L.

Prompt: Note pKi for the molecule shown: `COc1ccc(N2CCN(CCCNC(=O)Cn3c(=O)c4cccn4c4c(C)ccnc43)CC2)cc1`
Response: 6.34

###

Test target: Alpha2B (Homo sapiens)
Sequence (P18089 whole entry): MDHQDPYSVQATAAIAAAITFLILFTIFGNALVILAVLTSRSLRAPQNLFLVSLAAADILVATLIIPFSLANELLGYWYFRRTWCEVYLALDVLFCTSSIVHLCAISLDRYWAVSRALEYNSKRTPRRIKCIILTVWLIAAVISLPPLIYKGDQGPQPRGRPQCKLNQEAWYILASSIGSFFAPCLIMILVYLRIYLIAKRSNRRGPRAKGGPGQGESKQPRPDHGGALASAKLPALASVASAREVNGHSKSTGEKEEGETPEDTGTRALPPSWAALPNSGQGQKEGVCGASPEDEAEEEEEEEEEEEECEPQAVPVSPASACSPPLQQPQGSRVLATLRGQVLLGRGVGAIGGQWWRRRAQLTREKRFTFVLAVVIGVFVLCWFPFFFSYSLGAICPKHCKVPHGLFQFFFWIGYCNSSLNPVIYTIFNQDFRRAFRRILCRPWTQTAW
Assay explanation: PDSP radioligand binding assay
Condition description: Table 10
Measured attribute: Ki

Prompt: Return Ki (reported value) for this compound: Clc1ccc(CSc2nnc(-c3ccccn3)n2Cc2ccco2)cc1Cl [Compound 2{8}]
Response: 5.53 µM

###

Test target: H4 (Homo sapiens, UniProt Q9H3N8)
Sequence (Q9H3N8 whole entry): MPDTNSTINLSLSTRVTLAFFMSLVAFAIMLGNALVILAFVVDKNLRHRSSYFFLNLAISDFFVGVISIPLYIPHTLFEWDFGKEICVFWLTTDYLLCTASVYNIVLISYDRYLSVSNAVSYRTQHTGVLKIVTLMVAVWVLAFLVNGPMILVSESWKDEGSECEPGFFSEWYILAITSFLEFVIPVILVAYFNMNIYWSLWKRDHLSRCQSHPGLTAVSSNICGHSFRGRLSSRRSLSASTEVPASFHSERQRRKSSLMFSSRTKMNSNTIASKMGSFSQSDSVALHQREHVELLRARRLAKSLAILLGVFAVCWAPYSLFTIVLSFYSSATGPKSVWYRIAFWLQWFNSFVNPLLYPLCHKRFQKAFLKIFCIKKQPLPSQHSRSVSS
Assay explanation: PDSP radioligand binding assay
Condition description: Table 5
Measured attribute: Ki

Prompt: Jot down Ki (H4 (Homo sapiens, UniProt Q9H3N8)) of `COc1ccc(N2CCN(CCCNC(=O)Cn3c(=O)c4cccn4c4c(C)ccnc43)CC2)cc1` .
Response: > 10 µM

###

Test target: M1 (Homo sapiens, UniProt P11229)
Sequence (P11229 whole entry): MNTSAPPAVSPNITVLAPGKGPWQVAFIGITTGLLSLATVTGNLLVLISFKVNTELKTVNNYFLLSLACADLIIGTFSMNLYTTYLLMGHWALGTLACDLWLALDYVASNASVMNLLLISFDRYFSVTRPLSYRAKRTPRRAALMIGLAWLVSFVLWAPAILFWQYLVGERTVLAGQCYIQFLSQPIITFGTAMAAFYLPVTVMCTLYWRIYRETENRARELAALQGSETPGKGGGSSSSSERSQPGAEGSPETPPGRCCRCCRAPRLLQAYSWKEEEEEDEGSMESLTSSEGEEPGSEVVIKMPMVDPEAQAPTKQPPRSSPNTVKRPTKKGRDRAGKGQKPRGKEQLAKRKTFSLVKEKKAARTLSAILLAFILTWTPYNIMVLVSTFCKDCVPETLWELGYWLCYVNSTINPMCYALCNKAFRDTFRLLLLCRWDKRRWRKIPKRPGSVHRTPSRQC
Assay explanation: PDSP radioligand binding assay
Condition description: Table 5
Method: The compound was initially screened in radioligand binding assays at a constant concentration (10 μM) to identify possible activity of the compound. Results showing significant activity in the initial screen were selected for Ki determinations. As a representative of the Chemotype II series, the MLPCN probe molecule 2{8} was subjected to a binding assay panel of 44 GPCR and other molecular targets by the Pyschoactive Drug Screening Program (PDSP) (Table 10). […]
pKi: −log10 of the molar value.
Measured attribute: pKi

Prompt: Let me know recorded pKi for COc1ccc(N2CCN(CCCNC(=O)Cn3c(=O)c4cccn4c4c(C)ccnc43)CC2)cc1 [Compound 1{3}] , thanks.
Response: < 5.00

###

Test target: H1 (Homo sapiens)
Assay explanation: PDSP radioligand binding assay
Condition description: Table 10
Measured attribute: Ki

Prompt: Tell me measured Ki for Clc1ccc(CSc2nnc(-c3ccccn3)n2Cc2ccco2)cc1Cl [Compound 2{8}] please.
Response: > 10 µM

###

Test target: KOR (Homo sapiens)
Sequence (P41145 whole entry): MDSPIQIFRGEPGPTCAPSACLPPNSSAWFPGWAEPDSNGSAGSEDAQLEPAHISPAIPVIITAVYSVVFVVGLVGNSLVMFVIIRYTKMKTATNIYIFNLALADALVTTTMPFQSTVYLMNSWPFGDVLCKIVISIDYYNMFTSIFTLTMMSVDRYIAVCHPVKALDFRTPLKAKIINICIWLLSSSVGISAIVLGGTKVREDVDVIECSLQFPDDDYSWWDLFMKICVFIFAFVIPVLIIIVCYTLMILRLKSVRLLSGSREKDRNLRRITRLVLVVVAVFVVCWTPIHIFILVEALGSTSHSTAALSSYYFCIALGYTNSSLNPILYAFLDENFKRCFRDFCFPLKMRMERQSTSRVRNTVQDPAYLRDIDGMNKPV
Measured attribute: Ki (nM)
Numbers only; they are read as nM.

Worked examples follow.
Molecule	Ki, nM
COc1ccc(CSc2nnc(-c3ccccn3)n2Cc2cccs2)cc1 [Compound 2{21}]	7.1
Fc1cccc(F)c1CSc1nnc(-c2ccccn2)n1Cc1cccs1 [Compound 2{42}]	78
Cc1ccccc1CSc1nnc(-c2ccccn2)n1Cc1cccs1 [Compound 2{36}]	68
Cc1ccc(CSc2nnc(-c3ccccn3)n2Cc2ccco2)cc1 [Compound 2{12}]	16
COc1cccc(CSc2nnc(-c3ccccn3)n2Cc2ccco2)c1 [Compound 2{37}]	67

Prompt: State Ki on KOR (Homo sapiens). Entry: FC(F)(F)c1cc(CSc2nnc(-c3ccccn3)n2Cc2cccs2)ccc1Cl [Compound 2{11}]
Response: 3

Prompt: Jot down Ki (KOR (Homo sapiens)) of c1ccc(CSc2nnc(-c3ccccn3)n2Cc2cccs2)cc1 [Compound 2{23}] .
Response: 138

Prompt: Return reported Ki for target or system KOR (Homo sapiens), item c1ccc(CSc2nnc(-c3ccccn3)n2Cc2ccco2)cc1 [Compound 2{22}] .
Response: 155

###

Test target: D3 (Homo sapiens)
Sequence (P35462 whole entry): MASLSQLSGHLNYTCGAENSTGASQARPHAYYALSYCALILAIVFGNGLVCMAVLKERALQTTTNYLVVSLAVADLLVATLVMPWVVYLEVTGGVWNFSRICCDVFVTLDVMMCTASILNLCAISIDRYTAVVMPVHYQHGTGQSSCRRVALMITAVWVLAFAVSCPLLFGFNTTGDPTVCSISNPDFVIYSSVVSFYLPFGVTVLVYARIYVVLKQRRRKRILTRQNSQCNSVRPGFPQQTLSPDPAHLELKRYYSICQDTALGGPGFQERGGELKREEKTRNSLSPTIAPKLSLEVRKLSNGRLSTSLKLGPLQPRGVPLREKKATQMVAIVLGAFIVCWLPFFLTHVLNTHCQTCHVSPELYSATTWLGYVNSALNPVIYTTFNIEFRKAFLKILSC
Assay explanation: PDSP radioligand binding assay
Condition description: Table 10
pKi: −log10 of the molar value.
Measured attribute: pKi

Prompt: Provide pKi, tested on D3 (Homo sapiens), for Clc1ccc(CSc2nnc(-c3ccccn3)n2Cc2ccco2)cc1Cl [Compound 2{8}] .
Response: < 5.00
